Test system: TTR
Experiment: TTR editing in primary human hepatocytes transfected with Spy Cas9 mRNA and sgRNAs (Table 13)
Assay type: cell-based
Settings: primary human hepatocytes co-transfected with Spy Cas9 mRNA (SEQ ID NO:2) and sgRNAs, 12.5 nM
Strand notation (5' to 3'): a small letter for the sugar, then the base; units joined by * are phosphorothioate-linked, units joined directly phosphodiester-linked; [ ] holds rarer units or linkages, { } end groups; capitals alone tell only the bases. m = 2'-O-methyl; r = 2'-OH (RNA)
recorded_metric: Avg % Insert (%)
Write it as a number; the unit % goes unstated.

Reference set, count: 3
molecule	Avg % Insert / %
G000492: TTR sgRNA modified sequence, Human, SEQ ID No. 99; guide sequence of CR003342 (nucleic acid) guide: mC*mU*mU*rCrUrCrUrArCrArCrCrCrArGrGrGrCrArCrGrUrUrUrUrArGrAmGmCmUmAmGmAmAmAmUmAmGmCrArArGrUrUrArArArArUrArArGrGrCrUrArGrUrCrCrGrUrUrArUrCrAmAmCmUmUmGmAmAmAmAmAmGmUmGmGmCmAmCmCmGmAmGmUmCmGmGmUmGmCmU*mU*mU*mU	32.45
G000485: TTR sgRNA modified sequence, Human, SEQ ID No. 92; guide sequence of CR003336 (nucleic acid) guide: mC*mC*mU*rCrCrUrCrUrGrCrCrUrUrGrCrUrGrGrArCrGrUrUrUrUrArGrAmGmCmUmAmGmAmAmAmUmAmGmCrArArGrUrUrArArArArUrArArGrGrCrUrArGrUrCrCrGrUrUrArUrCrAmAmCmUmUmGmAmAmAmAmAmGmUmGmGmCmAmCmCmGmAmGmUmCmGmGmUmGmCmU*mU*mU*mU	28.87
G000501: TTR sgRNA modified sequence, Human, SEQ ID No. 108; guide sequence of CR005300 (nucleic acid) guide: mU*mC*mA*rCrArGrArArArCrArCrUrCrArCrCrGrUrArGrUrUrUrUrArGrAmGmCmUmAmGmAmAmAmUmAmGmCrArArGrUrUrArArArArUrArArGrGrCrUrArGrUrCrCrGrUrUrArUrCrAmAmCmUmUmGmAmAmAmAmAmGmUmGmGmCmAmCmCmGmAmGmUmCmGmGmUmGmCmU*mU*mU*mU	33.82

Please examine the following record next.
Quick one: Avg % Insert for G000491: TTR sgRNA modified sequence, Human, SEQ ID No. 98; guide sequence of CR003338 (nucleic acid) guide: mA*mU*mA*rCrCrArGrUrCrCrArGrCrArArGrGrCrArGrGrUrUrUrUrArGrAmGmCmUmAmGmAmAmAmUmAmGmCrArArGrUrUrArArArArUrArArGrGrCrUrArGrUrCrCrGrUrUrArUrCrAmAmCmUmUmGmAmAmAmAmAmGmUmGmGmCmAmCmCmGmAmGmUmCmGmGmUmGmCmU*mU*mU*mU ?
42.42
